# Tested on: BRD pathogens, M. haemolytica and P. multocida
# test_method_notes: MIC screening panel of BRD pathogens (antibacterial / non-antibacterial)
# measurement_parameters: read-out: antibacterial / non-antibacterial (MIC for the BRD pathogens)
Could you please report measured MIC for the items listed next?

Answer for every listed entry: what is its MIC? The entries follow.
1. CC[C@H]1OC(=O)[C@H](C)[C@@H](O[C@H]2C[C@@](C)(OC)[C@](O)(CN3CCC3)[C@H](C)O2)[C@H](C)[C@@H](O[C@@H]2O[C@H](C)C[C@H](N(C)C(=O)N(C)c3ccccc3)[C@H]2O)[C@](C)(O)C[C@@H](C)CN[C@H](C)[C@@H](O)[C@]1(C)O
2. CCCNC[C@]1(O)[C@H](C)O[C@@H](O[C@H]2[C@H](C)[C@@H](O[C@@H]3O[C@H](C)C[C@H](N(C)C(=O)N(C)c4ccncc4)[C@H]3O)[C@](C)(O)C[C@@H](C)CN[C@H](C)[C@@H](O)[C@](C)(O)[C@@H](CC)OC(=O)[C@@H]2C)C[C@@]1(C)OC

Result:
1: > 64 µg/mL; 2: > 64 µg/mL
